# target.entity: cytochrome bo3 R257Q (Escherichia coli, UniProt P0ABI8, R257Q)
# Sequence (P0ABJ1 25-315): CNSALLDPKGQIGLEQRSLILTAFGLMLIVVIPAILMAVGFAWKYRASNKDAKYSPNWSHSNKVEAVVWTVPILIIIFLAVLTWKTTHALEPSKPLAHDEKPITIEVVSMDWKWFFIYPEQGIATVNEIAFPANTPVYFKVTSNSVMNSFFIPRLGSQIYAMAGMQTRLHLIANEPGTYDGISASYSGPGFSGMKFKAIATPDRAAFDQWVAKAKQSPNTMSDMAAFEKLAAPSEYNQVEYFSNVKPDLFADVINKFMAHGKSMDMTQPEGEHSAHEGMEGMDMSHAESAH
# Sequence (P0ABI8 whole entry R257Q): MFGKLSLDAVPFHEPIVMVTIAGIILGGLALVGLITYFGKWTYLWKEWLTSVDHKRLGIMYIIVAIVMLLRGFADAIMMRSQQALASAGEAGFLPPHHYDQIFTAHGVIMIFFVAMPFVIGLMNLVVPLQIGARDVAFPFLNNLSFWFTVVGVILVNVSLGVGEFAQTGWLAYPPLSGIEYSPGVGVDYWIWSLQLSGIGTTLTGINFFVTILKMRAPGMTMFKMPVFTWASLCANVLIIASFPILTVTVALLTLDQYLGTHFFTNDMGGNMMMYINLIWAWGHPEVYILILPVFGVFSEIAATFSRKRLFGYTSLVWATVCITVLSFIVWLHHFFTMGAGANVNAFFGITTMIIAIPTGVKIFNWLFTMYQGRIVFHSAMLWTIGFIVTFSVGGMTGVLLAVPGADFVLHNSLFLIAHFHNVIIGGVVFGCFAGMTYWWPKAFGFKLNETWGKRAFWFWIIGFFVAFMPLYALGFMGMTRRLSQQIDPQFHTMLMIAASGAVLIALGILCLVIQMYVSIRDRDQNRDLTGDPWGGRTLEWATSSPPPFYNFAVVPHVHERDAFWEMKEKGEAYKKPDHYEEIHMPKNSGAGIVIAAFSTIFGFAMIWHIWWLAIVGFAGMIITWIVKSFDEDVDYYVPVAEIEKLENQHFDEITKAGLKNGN
# Sequence (P0ABJ3 whole entry, further chain): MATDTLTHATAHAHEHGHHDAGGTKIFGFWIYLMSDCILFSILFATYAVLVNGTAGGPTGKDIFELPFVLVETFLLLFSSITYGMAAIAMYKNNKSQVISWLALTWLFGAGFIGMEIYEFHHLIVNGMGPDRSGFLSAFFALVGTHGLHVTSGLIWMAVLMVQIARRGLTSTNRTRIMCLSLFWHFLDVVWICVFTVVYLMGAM
# Sequence (P0ABJ6 whole entry, further chain): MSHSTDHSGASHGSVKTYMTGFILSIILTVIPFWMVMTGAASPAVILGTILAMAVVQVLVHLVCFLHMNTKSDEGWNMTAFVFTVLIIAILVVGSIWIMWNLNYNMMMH
# test: HQNO binding monitored by fluorescence anisotropy
# experimental.parameters: read-out: Kd HQNO
quantity.kind: Kd
Put down the number, then write its unit next to it.

Inquiry: # returns recorded Kd (system: cytochrome bo3 R257Q (Escherichia coli, UniProt P0ABI8, R257Q)) for CCCCCCCc1cc(=O)c2ccccc2n1O [HQNO]
Reply text: 4 µM

====

# target.entity: cytochrome bo3 W^II136A (Escherichia coli, UniProt P0ABI8)
# Sequence (P0ABJ6 whole entry): as the sequence (P0ABJ6 whole entry, further chain) above
# Sequence (P0ABJ3 whole entry, further chain): as the sequence (P0ABJ3 whole entry, further chain) above
# Sequence (P0ABI8 whole entry): as the sequence (P0ABI8 whole entry R257Q) above, with Q257R counted along it
# Sequence (P0ABJ1 25-315 W136A, further chain): as the sequence (P0ABJ1 25-315) above, with W112A counted along it
quantity.kind: Kd (µM)
Write the value in µM as a bare number.

Inquiry: Reported Kd for CCCCCCCc1cc(=O)c2ccccc2n1O : what is it?
Reply text: 4.1

Each recorded value in this set is attributed to paper PMC2922442.
